Values from ChEMBL document CHEMBL4411264

The following molecules are shown together with reported IC50 values.
- System: Trypanosoma cruzi
- Assay Overview: Antiparasitic activity against Trypanosoma cruzi Tulahuen C4 trypomastigotes infected in rat L6 cells after 96 hrs by CPRG/Nonidet reagent based photometric analysis
- Type: functional, organism-based
- Details: Tulahuen C4, L6, 96 h
Square brackets hold non-standard residues; d marks the D form. Peptide text beside a SMILES is read from it. * marks the point of attachment. NHPhenethyl = c1ccc(CCN*)cc1; NMeM = CN[C@@H](CCSC)C(=O)O; NMeV = CN[C@H](C(=O)O)C(C)C
Kindly provide the numeric value in µM only, without the unit symbol.

Molecule	Study System	Unit Spec	IC50
CSCC[C@@H](C(=O)N[C@H](C(=O)N(C)[C@H](C(=O)N(C)[C@H](C(=O)NCCc1ccccc1)C(C)C)C(C)C)C(C)C)N(C)C(=O)[C@@H](N)C(C)C (H-V[NMeM]V[NMeV][NMeV]-NHPhenethyl)	Trypanosoma cruzi	µM	14.2

Please examine the following record next.
What measured IC50 goes with CN[C@H](C(=O)N[C@H](C(=O)N(C)[C@@H](CCSC)C(=O)N(C)[C@H](C(=O)N(C)[C@H](C(=O)NCCc1ccccc1)C(C)C)C(C)C)C(C)C)C(C)C (H-[NMeV]V[NMeM][NMeV][NMeV]-NHPhenethyl) ?
25.4
